- experimentalTarget: 5-HT uptake (Rattus norvegicus, UniProt P31652)
- Construct: In the serotonin uptake experiment cortex was used as tissue
- Sequence (P31652 whole entry): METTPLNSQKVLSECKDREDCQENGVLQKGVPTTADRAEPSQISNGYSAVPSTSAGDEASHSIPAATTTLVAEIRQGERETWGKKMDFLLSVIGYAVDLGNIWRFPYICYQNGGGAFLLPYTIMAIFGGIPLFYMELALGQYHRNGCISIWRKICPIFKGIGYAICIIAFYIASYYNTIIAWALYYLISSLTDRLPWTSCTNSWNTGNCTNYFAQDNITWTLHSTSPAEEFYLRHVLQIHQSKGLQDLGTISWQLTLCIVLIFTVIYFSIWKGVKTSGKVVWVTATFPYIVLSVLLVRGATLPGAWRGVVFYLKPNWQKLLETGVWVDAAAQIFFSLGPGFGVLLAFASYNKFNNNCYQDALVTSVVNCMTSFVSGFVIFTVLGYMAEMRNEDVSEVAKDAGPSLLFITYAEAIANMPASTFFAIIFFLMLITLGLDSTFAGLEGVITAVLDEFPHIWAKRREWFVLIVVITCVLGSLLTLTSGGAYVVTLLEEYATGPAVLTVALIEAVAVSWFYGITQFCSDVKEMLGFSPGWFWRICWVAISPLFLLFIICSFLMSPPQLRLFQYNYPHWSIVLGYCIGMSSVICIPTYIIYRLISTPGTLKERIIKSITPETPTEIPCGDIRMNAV
- measurementNotes: Serotonin uptake experiment (tritiated serotonin, cortex)
- protocolConditions: cortex tissue; ligand tritiated serotonin; non-specific ligand fluoxetine (100 μM); read-out: Inhibition of 5-HT uptake, IC50
Where a name gives a salt, the structure may show the parent alone.
measuredAttribute: IC50

- O=C1Nc2ccccc2C1CCCCN1CC=C(c2ccc(Cl)cc2)CC1 (centres unmarked): < 0.1 µM
- O=C1Nc2ccc(F)cc2C1CCCCN1CC=C(c2cccc(C(F)(F)F)c2)CC1 (centres unmarked) [Example 14, monohydrochloride]: < 0.1 µM
